- Tested on: 276233-004-R-J1-PDC complex spheroid viability;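 further: spheroids exposed to drugs for seven days; 100% = DMSO vehicle control viability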
- procedure text: Anticancer human tumor 276233-004-R-J1-PDC patient-derived colon adenocarcinoma cell line growth inhibition [GQUAD]
- measurement conditions: second compound 0.1 µM; first compound 0.0316 µM; stronger effect = lower value
- From the text: DNA G-quadruplex Stabilizer Agents in Combinations in Complex Spheroids A high-throughput screen of multi-cell type tumor spheroids was designed to identify active combinations of DNA G-quadruplex stabilizer agents and targeted small molecules. […] Compounds. […] If the clinical Cmax for an agent had not been determined, the highest concentration tested was 10 microM. […]
measured endpoint: viability, T/C

For orientation, consider the following solved cases.
CC(C)n1c(=O)n(C)c2cnc3cc(F)c(-c4ccc(OCCCN5CCCCC5)nc4)cc3c21 + Cc1cnc(CNC(=O)c2c(=O)c3ccc(N4CCCN(C)CC4)nc3n3c2sc2ccccc23)cn1; 79%
C#Cc1c(F)ccc2cc(O)cc(-c3ncc4c(N5CC6CCC(C5)N6)nc(OCC56CCCN5CC(F)C6)nc4c3F)c12 (stereo not given) + CN(C)c1ccc(Nc2c3ccc(NC(=O)CCN4CCCC4)cc3nc3cc(NC(=O)CCN4CCCC4)ccc23)cc1; 78.7%
CC1COCCN1c1cc(-c2ccnn2C)c2ccnc(-c3ccn[nH]3)c2n1 (stereo not given) + Cc1[nH]c2ccc(F)cc2c1-c1nc2c3cccnc3c3ncccc3c2[nH]1; 76.1%
COc1ccc([C@@H](O)c2cc(-c3ncnc4cc(N5CCOCC5)ccc34)c(F)cc2Cl)nn1 + Cc1cnc(CNC(=O)c2c(=O)c3ccc(N4CCCN(C)CC4)nc3n3c2sc2ccccc23)cn1; 78.7%

Switching to the query record.
Requested field: viability, T/C. Item: COc1cc(C2c3cc4c(cc3C(OC3OC5COC(C)OC5C(O)C3O)C3COC(=O)C23)OCO4)cc(OC)c1O (stereo not given) + Cc1[nH]c2ccc(F)cc2c1-c1nc2c3cccnc3c3ncccc3c2[nH]1
89.9%
